- TEST DETAILS: Partition coefficient (logD)
- Type: physicochemical
- CONDITION SUMMARY: octanol/water
OBSERVED PROPERTY: logD

A. CCCCCCCCCCS(=O)(=O)c1ccc(O)c(C(=O)Nc2ccc(C(F)(F)F)cc2)c1
B. CS(=O)(=O)c1ccc(O)c(C(=O)Nc2ccc(C(F)(F)F)cc2)c1
C. CCCCCCS(=O)(=O)c1ccc(O)c(C(=O)Nc2ccc(C(F)(F)F)cc2)c1
Problem: Order the entries above from lowest to highest logD. I'd appreciate it if you listed the labels in the requested order.
Result: B, C, A

a. CCCCCCCCCCCCS(=O)(=O)c1ccc(O)c(C(=O)Nc2ccc(Br)cc2)c1
b. CCCCS(=O)(=O)c1ccc(O)c(C(=O)Nc2ccc(Br)cc2)c1
Problem: Could you kindly indicate whether a or b has the higher logD value? Identify your selection by its label.
Result: a
(a: 6.49, b: 2.48)

a. CCCCCCCCS(=O)(=O)c1ccc(O)c(C(=O)Nc2ccc(C(F)(F)F)cc2)c1
b. CCCCS(=O)(=O)c1ccc(O)c(C(=O)Nc2ccc(C(F)(F)F)cc2)c1
Problem: Input pair: a , b . Output: entry with lower logD. Choose, then provide that item's label.
Result: b
(b: 3.1, a: 5.26)

A. CCCCCCCCCCCCS(=O)(=O)c1ccc(O)c(C(=O)Nc2ccc(C(F)(F)F)cc2)c1
B. CCCCCCS(=O)(=O)c1ccc(O)c(C(=O)Nc2ccc(Br)cc2)c1
Problem: Looking at recorded values for logD, does A or B come in lower? Label of pick, please.
Result: B

###

- TEST DETAILS: Partition coefficient (logP)
- Assay type: physicochemical
- CONDITION SUMMARY: octanol/water
OBSERVED PROPERTY: logP

Answered cases to consult:
CCCCCCCCCCCCS(=O)(=O)c1ccc(O)c(C(=O)Nc2ccc(Br)cc2)c1    8.44
CCCCCCCCS(=O)(=O)c1ccc(O)c(C(=O)Nc2ccc(C(F)(F)F)cc2)c1    6.3
CCCCCCCCCCS(=O)(=O)c1ccc(O)c(C(=O)Nc2ccc(Br)cc2)c1    7.36

1. CCCCCCS(=O)(=O)c1ccc(O)c(C(=O)Nc2ccc(C(F)(F)F)cc2)c1
2. CS(=O)(=O)c1ccc(O)c(C(=O)Nc2ccc(C(F)(F)F)cc2)c1
Problem: Looking only at measured logP, which entry is lower, 1 or 2 ? Write down the label attached to your selection.
Result: 2

###

- TEST DETAILS: Dissociation constant of the compound
- Assay type: physicochemical
OBSERVED PROPERTY: pKa

CCCCS(=O)(=O)c1ccc(O)c(C(=O)Nc2ccc(C(F)(F)F)cc2)c1    6.2
CCCCCCS(=O)(=O)c1ccc(O)c(C(=O)Nc2ccc(C(F)(F)F)cc2)c1    6.2
CCCCCCCCCCS(=O)(=O)c1ccc(O)c(C(=O)Nc2ccc(Br)cc2)c1    5.2
CCCCCCCCCCCCS(=O)(=O)c1ccc(O)c(C(=O)Nc2ccc(Br)cc2)c1    5.2
CCCCCCCCS(=O)(=O)c1ccc(O)c(C(=O)Nc2ccc(C(F)(F)F)cc2)c1    6.2
CCCCS(=O)(=O)c1ccc(O)c(C(=O)Nc2ccc(Br)cc2)c1    5.2
CCCCCCCCCCS(=O)(=O)c1ccc(O)c(C(=O)Nc2ccc(C(F)(F)F)cc2)c1    6.2
CCCCCCS(=O)(=O)c1ccc(O)c(C(=O)Nc2ccc(Br)cc2)c1    5.2
CCCCCCCCCCCCS(=O)(=O)c1ccc(O)c(C(=O)Nc2ccc(C(F)(F)F)cc2)c1    6.2
CS(=O)(=O)c1ccc(O)c(C(=O)Nc2ccc(C(F)(F)F)cc2)c1    6.2
